Experimental Target: Ephrin type-A receptor 4 (Homo sapiens)
Study Conditions: at 1 µM
Description: GSK_PKIS: EPHA4 mean inhibition at 1 uM [Nanosyn]
Readout Type: inhibition

# Smiles Code, Meas Value
rows = [
    ("COc1cccc(-n2ncc3c(N/N=C/c4ccc(C)cc4)ncnc32)c1", "11.3%"),
    ("Cc1ccc(C(=O)NC2CC2)cc1-c1ccc2[nH]ncc2c1", "-8.91%"),
    ("NC(=O)c1cccc(Nc2nccc(Nc3cccc(F)c3)n2)c1", "29.1%"),
    ("CCn1c(-c2nonc2N)nc2ccc(F)cc21", "15%"),
    ("Cc1ccc2c(-c3ccnc(Nc4cccc(C(F)(F)F)c4)n3)c(-c3ccccc3)nn2n1", "33.9%"),
    ("Cc1ccc2c(c1)/C(=N/Nc1ccc(S(N)(=O)=O)cc1)C(=O)N2", "-5.42%"),
]

---

Some molecules, each annotated with its measured inhibition.
Experimental Target: Serine/threonine-protein kinase 26 (Homo sapiens);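 note: mean inhibition of MST4 kinase activity, reported from the GSK PKIS inhibitor-set screening panel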
Study Conditions: at 1 µM

# Smiles Code, Units Text, inhibition
data = [
    ("COC(=O)Nc1nc2cc(Oc3ccc(NC(=O)Nc4cccc(Br)c4)cc3)ccc2[nH]1", "%", 9.97),
    ("CN(c1ccc(NC(=O)Nc2ccc(OC(F)(F)F)cc2)cc1)c1ccnc(Nc2cccc(S(N)(=O)=O)c2)n1", "%", -3.21),
    ("CCOc1nccc2c1nc(-c1nonc1N)n2CC", "%", -0.82),
    ("COc1cccc(-n2ncc3c(N/N=C/c4ccc(C)cc4)ncnc32)c1", "%", -3.2),
    ("COc1cccc(-n2nc(C)c3c(N/N=C(\\C)c4ccncc4)ncnc32)c1", "%", 1.92),
    ("NC(=O)c1sc(-n2cnc3ccccc32)cc1OCc1ccccc1Br", "%", -2.12),
    ("Cc1ccc(C(=O)NC2CC2)cc1-c1ccc2[nH]ncc2c1", "%", -0.24),
    ("CCn1c(-c2nonc2N)nc2c(C#CC(C)(C)O)nc(OCCNC)cc21", "%", -1.03),
    ("COc1cccc(-n2ncc3c(N/N=C/c4ccc(S(C)(=O)=O)cc4)ncnc32)c1", "%", 2.58),
    ("COc1cc2ncnc(Nc3ccc4c(cnn4Cc4ccccc4)c3)c2cc1OC", "%", -2.02),
]

---

Some compounds, each annotated with its measured inhibition.
Experimental Target: Mitogen-activated protein kinase kinase kinase kinase 2 (Homo sapiens) (UniProt Q12851);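 note: reported value is a mean of MAP4K2 inhibition at 1 µM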
Sequence (Q12851 whole entry): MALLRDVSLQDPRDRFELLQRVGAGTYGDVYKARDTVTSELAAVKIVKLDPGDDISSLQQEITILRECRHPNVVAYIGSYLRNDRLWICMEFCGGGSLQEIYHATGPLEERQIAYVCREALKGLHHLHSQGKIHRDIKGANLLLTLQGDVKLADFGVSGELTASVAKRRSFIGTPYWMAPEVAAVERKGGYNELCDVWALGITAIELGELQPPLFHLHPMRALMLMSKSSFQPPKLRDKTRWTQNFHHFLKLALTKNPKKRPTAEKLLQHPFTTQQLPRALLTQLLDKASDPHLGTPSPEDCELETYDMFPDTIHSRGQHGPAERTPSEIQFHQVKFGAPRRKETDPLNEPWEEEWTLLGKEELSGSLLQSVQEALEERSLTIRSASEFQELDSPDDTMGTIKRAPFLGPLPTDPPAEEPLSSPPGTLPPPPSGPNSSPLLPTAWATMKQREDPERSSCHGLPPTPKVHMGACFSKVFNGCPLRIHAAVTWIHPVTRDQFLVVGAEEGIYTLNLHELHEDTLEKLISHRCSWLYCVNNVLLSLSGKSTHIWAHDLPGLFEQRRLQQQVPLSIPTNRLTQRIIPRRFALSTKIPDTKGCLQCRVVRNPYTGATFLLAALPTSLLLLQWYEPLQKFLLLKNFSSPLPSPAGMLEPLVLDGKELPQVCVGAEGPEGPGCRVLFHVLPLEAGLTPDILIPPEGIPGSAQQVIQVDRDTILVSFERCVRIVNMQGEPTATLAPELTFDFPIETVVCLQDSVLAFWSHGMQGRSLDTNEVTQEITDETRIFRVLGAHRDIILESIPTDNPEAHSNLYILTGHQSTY
Study Conditions: at 1 µM

# Compound, Units Text, inhibition
rows = [
    ("Cc1nc(-c2ccccc2)n2nc(NCCCN3CCOCC3)ncc12", "%", 2.48),
    ("COc1cc2ncnc(Nc3ccc4c(cnn4Cc4ccccc4)c3)c2cc1OC", "%", 1.51),
    ("Nc1nccc(C#Cc2cncnc2Nc2ccc(OCc3cccc(F)c3)c(Cl)c2)n1", "%", -0.42),
    ("CS(=O)(=O)Nc1cccc(-c2ccc3c(NC(=O)C4CC4)n[nH]c3c2)c1", "%", 2.98),
    ("[O-][S+]1CCN(Cc2ccc(-c3ccc4ncnc(Nc5ccc(OCc6ccccc6)c(Cl)c5)c4c3)o2)CC1", "%", 1.53),
    ("CCS(=O)(=O)c1ccc(OC)c(Nc2ncc(-c3cccc(OC)c3)o2)c1", "%", 6.14),
    ("COc1cc(/C=N/Nc2ncnc3c2cnn3C(C)C)ccc1O", "%", 9.5),
    ("C[C@@H](Oc1cc(-n2cnc3ccc(OC[C@@H](O)CO)cc32)sc1C(N)=O)c1ccccc1Cl", "%", 16.4),
    ("C[C@@H](Oc1cc(-n2cnc3ccc(OCC4CCN(C)CC4)cc32)sc1C(N)=O)c1ccccc1C(F)(F)F", "%", 12.1),
    ("Cc1ccc(O)cc1Nc1ccnc2ccc(S(C)(=O)=O)cc12", "%", 31),
    ("c1ccc(Nc2ncc(-c3ccccc3)o2)cc1", "%", 5.7),
    ("Cc1cc(O)cc(C)c1/C=C/c1cncc(C(=O)N(C)C)c1", "%", 6.67),
    ("CC(C)c1ccc(Nc2nccc(-c3cnn4ncccc34)n2)cc1", "%", 23.4),
    ("ON=C1CCc2cc(-c3nc(C4CCNCC4)[nH]c3-c3ccncc3)ccc21", "%", 4.29),
    ("Cc1ccc2c(-c3ccnc(Nc4ccc5c(c4)OCCO5)n3)c(-c3ccc(C(F)(F)F)cc3)nn2n1", "%", 2.41),
    ("CCn1c(-c2nonc2N)nc2ccc(F)cc21", "%", 2.01),
    ("Cc1ccc(NC(=O)CC2CC2)cc1-c1ccc(C(=O)NCC2CC2)cc1", "%", 3.42),
    ("COc1cc2ncnc(Nc3ccc(C)c(O)c3)c2cc1OC", "%", 5.63),
    ("Cc1cc(-c2ccccn2)cc(C)c1/C=C/c1cncc(-c2nn[nH]n2)c1", "%", 3.53),
    ("O=C1Nc2ccccc2/C1=C/Nc1ccc2[nH]c(=O)[nH]c2c1", "%", 15.2),
    ("COC(=O)c1ccc2c(c1)C(=Cc1cc(Br)c(O)c(Br)c1)C(=O)N2", "%", 4.06),
    ("COC(=O)Nc1nc2cc(Oc3ccc(NC(=O)Nc4cccc(Br)c4)cc3)ccc2[nH]1", "%", 10.2),
    ("CCCN1CCCC(c2ccc(Nc3nc(Nc4cc(F)ccc4C(N)=O)c4cc[nH]c4n3)c(OC)c2)C1 (stereo not drawn)", "%", 48.9),
]
